# Test system: Saccharomyces cerevisiae
# Experiment Description: protein stability index of tFT-peptide fusion (C-terminal peptide) (PSI (0-1 scale)); higher = more stable (slower turnover)
# Condition Set: genetic background: wild type; temperature: 30 C
Readout Name: protein stability index

>>> print(df.to_string())
                          polymer_sequence             readout_name  test_value
0  AFFAVILLYIPG [YKR073C C-terminal 12 aa]  protein stability index       0.302
1  QNDRRSVLKKYI [YER010C C-terminal 12 aa]  protein stability index       0.666
2    STSCDVIQSRNA [MET22 C-terminal 12 aa]  protein stability index       0.692
3     AAVRQRREVNKK [ARO4 C-terminal 12 aa]  protein stability index       0.676
4     GKGKKKMVVLEW [ETR1 C-terminal 12 aa]  protein stability index       0.712
5     VATADIKNEDKN [BNA2 C-terminal 12 aa]  protein stability index       0.731

* * *

# System: Saccharomyces cerevisiae
# Experiment Description: protein stability index of tFT-peptide fusion (C-terminal peptide) (PSI (0-1 scale)); higher = more stable (slower turnover)
# Condition Set: genetic background: wild type; temperature: 30 C
// values below are reported protein stability index
Readout Name: protein stability index

>>> print(df.to_string())
                           polymer_sequence               measured_on             readout_name  test_value
 0    QKRIQRKKMNEM [AIM23 C-terminal 12 aa]  Saccharomyces cerevisiae  protein stability index       0.663
 1    KISFKWKKQRKR [UTP11 C-terminal 12 aa]  Saccharomyces cerevisiae  protein stability index       0.655
 2  PVTPAVSKRYQP [YER084W C-terminal 12 aa]  Saccharomyces cerevisiae  protein stability index       0.694
 3     QSILACCQESNK [LCB1 C-terminal 12 aa]  Saccharomyces cerevisiae  protein stability index       0.645
 4     EVENDRQIHRML [IDI1 C-terminal 12 aa]  Saccharomyces cerevisiae  protein stability index       0.682
 5  DEEKQLSLSDMI [YOR186W C-terminal 12 aa]  Saccharomyces cerevisiae  protein stability index       0.672
 6     LKSQSLTTGWSL [MNS1 C-terminal 12 aa]  Saccharomyces cerevisiae  protein stability index       0.741
 7     RKLFLVVKDNIL [JIP3 C-terminal 12 aa]  Saccharomyces cerevisiae  protein stability index       0.734
 8    YKTKYIWERLGK [SPC24 C-terminal 12 aa]  Saccharomyces cerevisiae  protein stability index       0.694
 9     GEYLRDEDTLFT [NIP7 C-terminal 12 aa]  Saccharomyces cerevisiae  protein stability index       0.725
10     IYKYCCCCFCCC [YCK3 C-terminal 12 aa]  Saccharomyces cerevisiae  protein stability index       0.594
11  VVQFLVNLVCHT [YGR114C C-terminal 12 aa]  Saccharomyces cerevisiae  protein stability index       0.487
12     GWYVGRYYRITR [IMD1 C-terminal 12 aa]  Saccharomyces cerevisiae  protein stability index       0.694
13    VWCSVKKRLLEK [TIM23 C-terminal 12 aa]  Saccharomyces cerevisiae  protein stability index       0.732
14  SYLKGYIGCKIS [YPR092W C-terminal 12 aa]  Saccharomyces cerevisiae  protein stability index       0.569
15     WLDKHTTTEAKP [YJU3 C-terminal 12 aa]  Saccharomyces cerevisiae  protein stability index       0.705
16  ANSLDAIFLKSK [YNL150W C-terminal 12 aa]  Saccharomyces cerevisiae  protein stability index       0.669
17     ATEITPLLNIAE [VLD1 C-terminal 12 aa]  Saccharomyces cerevisiae  protein stability index       0.773
18     SNKLKGNPNQVF [MTG1 C-terminal 12 aa]  Saccharomyces cerevisiae  protein stability index        0.75
19  RMVDKVEGSFSR [YDR109C C-terminal 12 aa]  Saccharomyces cerevisiae  protein stability index       0.701
20     PPKSIFDTDDDD [RCN1 C-terminal 12 aa]  Saccharomyces cerevisiae  protein stability index       0.714
21     SNSLPKLKFHSM [OCA6 C-terminal 12 aa]  Saccharomyces cerevisiae  protein stability index       0.681
22     ESGLQSINESTL [ALY2 C-terminal 12 aa]  Saccharomyces cerevisiae  protein stability index       0.706
23  YPQQLLGYTDNG [YKL115C C-terminal 12 aa]  Saccharomyces cerevisiae  protein stability index       0.597
24     KSGPEWIAENRD [TUM1 C-terminal 12 aa]  Saccharomyces cerevisiae  protein stability index       0.717
